system: CP247; assay: qHTS profiling for inhibitors of Plasmodium falciparum proliferation (AID 504749); note: nearly all actives have a fitted effect of over 60% in size; details: P. falciparum in erythrocytes, SYBR Green DNA, 72 h; series mostly up to 28.7 µM
Results filed as inconclusive are left out. Active and inactive are the calls of the source. Calls come from the whole dose curve; as a rule, active = well fitted inhibition curve with a large enough effect; inconclusive = small, poorly fitted or top-dose-only effect; inactive = flat fitted curve, though single readings scatter.
I would appreciate it if you answered using one of these outcomes: Y = active, N = inactive

Field: outcome | Entry: `OC[C@H]1O[C@@H]2O[C@H]3[C@H](O)[C@@H](O)[C@@H](O[C@H]4[C@H](O)[C@@H](O)[C@@H](O[C@H]5[C@H](O)[C@@H](O)[C@@H](O[C@H]6[C@H](O)[C@@H](O)[C@@H](O[C@H]7[C@H](O)[C@@H](O)[C@@H](O[C@H]1[C@H](O)[C@H]2O)O[C@@H]7CO)O[C@@H]6CO)O[C@@H]5CO)O[C@@H]4CO)O[C@@H]3CO`
N

Look up the recorded call for `C=CC[C@@H]1/C=C(\C)C[C@H](C)C[C@H](OC)[C@H]2O[C@@](O)(C(=O)C(=O)N3CCCC[C@H]3C(=O)O[C@H](/C(C)=C/[C@@H]3CC[C@@H](O)[C@H](OC)C3)[C@H](C)[C@@H](O)CC1=O)[C@H](C)C[C@@H]2OC` in this test.
Y

Hello, I am checking results. What call was entered for `OCC(O)CO` ?
N

What call does the record list for `FC(F)(F)COCC(F)(F)F` ?
N

Look up the recorded call for `CNC(=O)OCc1cccc(COC(=O)NC)n1` in this test.
N

State the result this test recorded for `CN(C)CCOc1ccc(/C(=C(/CCCl)c2ccccc2)c2ccccc2)cc1` .
N

Write down the call the test reported for this molecule. Item: `CCCc1ccc(C(=O)O)cc1`
N

Which outcome was assigned to `CO` in this test?
N

What did this assay record as the result for `C[C@]12CCC(=O)C[C@@H]1CC[C@@H]1[C@@H]2CC[C@]2(C)C=CC[C@@H]12` ?
N

Hi team, can someone confirm the assay call for `O=C(O)/C=C/c1ccccc1` ?
N

###

Provide the reported max response of each item.
tested on: KB-3-1; experiment: Cytotoxic Profiling of Annotated Libraries Using Quantitative High-Throughput Screening (AID 1296008); conditions: Five cell lines viability, CellTiter-Glo ATP luminescence, 48-72 h; hits give low values; note: % is set by controls: 0 for no effect and ±100 for the full control effect; nearly all actives have a fitted effect of over 60% in size
Records with an inconclusive call do not appear.
Answer format: numeric, % implied, no suffix.

Check KB-3-1 data and give max response for `OB(O)O` .
-9

Report max response under test system KB-3-1 for `C[C@]12CC[C@@H]3c4ccc(O)cc4CC[C@H]3[C@@H]1CC[C@@H]2OP(=O)(O)O` .
-26.5

Send back KB-3-1 max response of CC1=CCC2CC1C2(C)C (centres undefined) only.
16.6

Supply max response measured with KB-3-1 for `CC/C=C\C/C=C\C/C=C\C/C=C\C/C=C\C/C=C\CCC(=O)O` .
0.95

With KB-3-1 as the test system, provide measured max response for this compound: `CCC(=O)c1ccc2c(c1)N(CCCN1CCN(CCO)CC1)c1ccccc1S2`
-13.4

GET max response where system = KB-3-1 and item = `COc1ccc(-c2noc(CC(=O)O)c2-c2ccc(OC)cc2)cc1`
2.01

Give reported max response for `CCCCCCCCCCCCCCCC(=O)OC[C@H](COP(=O)([O-])OCC[N+](C)(C)C)OC(=O)CCCCCCCCCCCCCCC` (KB-3-1)
-12.2

Recall the reported max response of `Cn1nnnc1SCC1=C(C(=O)O)N2C(=O)[C@@H](NC(=O)[C@H](O)c3ccccc3)[C@H]2SC1` on KB-3-1 and write it down.
8.48

Give max response; test system KB-3-1; compound `CNCC(=O)N[C@@H](CCCN=C(N)N)C(=O)N[C@H](C(=O)N[C@@H](Cc1ccc(O)cc1)C(=O)N[C@H](C(=O)N[C@@H](Cc1cnc[nH]1)C(=O)N1CCC[C@H]1C(=O)N[C@@H](C)C(=O)O)C(C)C)C(C)C`
1.41
